- Test Details: Pharmacokinetics following IV & SC administration
- Run Parameters: Wistar, rat, in vivo, sc
Endpoint Name: bioavailability (%)

- C[C@@H](O)[C@@H]1NC(=O)[C@H](CCCCN)NC(=O)[C@@H](Cc2c[nH]c3ccccc23)NC(=O)[C@H](Cc2c[nH]c3ccccc23)NC(=O)[C@H](Cc2ccccc2)NC(=O)CCCNC(=O)CCCN(CC(N)=O)C(=O)[C@H](Cc2ccccc2)NC1=O: 99.6

---

Entries and their measured remaining at 24 h follow.
- Test Details: in vitro
- Run Parameters: kidney or brush border membranes
*1 amine or outer side, *2 acyl side, *3 side chain or, on linkers, in order; H or OH if unused. Where a SMILES comes first, the peptide text is derived from it. Bridges are numbered along the chain shown (N, C = ends). [ ]: non-standard residue; d: D form. Phe(Nα-CH2CH2CO) = O=C([C@H](Cc1ccccc1)N(CCC(=O)[*:3])[*:1])[*:2]
Endpoint Name: remaining at 24 h (%)

* NCCCC[C@H]1NC(=O)[C@@H](Cc2c[nH]c3ccccc23)NC(=O)[C@H](Cc2ccccc2)NC(=O)[C@H](Cc2ccccc2)NC(=O)[C@H](Cc2ccccc2)NC(=O)CCN([C@@H](Cc2ccccc2)C(N)=O)C1=O [PTR 3171, Phe*-Phe-Phe-(D)Trp-(D)Lys-Phe(C2)-X] (FFF[dW][dK][Phe(Nα-CH2CH2CO)]-NH2; lactam N-6) | 100
* NCCCC[C@@H]1NC(=O)[C@@H](Cc2c[nH]c3ccccc23)NC(=O)[C@H](Cc2ccccc2)NC(=O)[C@H](Cc2ccccc2)NC(=O)[C@H](Cc2ccccc2)NCC(=O)NCCN([C@@H](Cc2ccccc2)C(N)=O)C1=O | 100
* C[C@@H](O)[C@@H]1NC(=O)[C@H](CCCCN)NC(=O)[C@@H](Cc2c[nH]c3ccccc23)NC(=O)[C@H](Cc2ccccc2)NC(=O)[C@@H](NC(=O)[C@H](N)Cc2ccccc2)CSSC[C@@H](C(=O)N[C@H](CO)[C@@H](C)O)NC1=O [Octreotide] | 100
* C[C@H](N)C(=O)NCC(=O)N[C@H]1CSSC[C@@H](C(=O)O)NC(=O)[C@H](CO)NC(=O)[C@H]([C@@H](C)O)NC(=O)[C@H](Cc2ccccc2)NC(=O)[C@H]([C@@H](C)O)NC(=O)[C@H](CCCCN)NC(=O)[C@H](Cc2c[nH]c3ccccc23)NC(=O)[C@H](Cc2ccccc2)NC(=O)[C@H](Cc2ccccc2)NC(=O)[C@H](CC(N)=O)NC(=O)[C@H](CCCCN)NC1=O [SRIF, reference compound] | 0
* NCCCC[C@H]1NC(=O)[C@@H](Cc2c[nH]c3ccccc23)NC(=O)[C@H](Cc2ccccc2)NC(=O)[C@H](Cc2ccccc2)NC(=O)[C@H](Cc2ccccc2)NCC(=O)NCCN([C@@H](Cc2ccccc2)C(N)=O)C1=O | 100
* C[C@@H](O)[C@@H]1NC(=O)[C@H](CCCCN)NC(=O)[C@@H](Cc2c[nH]c3ccccc23)NC(=O)[C@H](Cc2c[nH]c3ccccc23)NC(=O)[C@H](Cc2ccccc2)NC(=O)CCCNC(=O)CCCN(CC(N)=O)C(=O)[C@H](Cc2ccccc2)NC1=O | 100
